Data origin: the supplement of paper PMC8149375

# System: A498
# test-description: AUC of dose-response viability curve, drug + dasatinib, normalised to DMSO (arbitrary (AUC of normalised viability)); higher = less growth inhibition
# stated-conditions: treatment: drug + dasatinib (fixed dose, not stated); 5 days
metric: AUC of dose-response viability curve

Solved cases below.
>  <compound>
O=C1NC(=O)/C(=C/c2ccc3nccc(-c4ccncc4)c3c2)S1 + Cc1nc(Nc2ncc(C(=O)Nc3c(C)cccc3Cl)s2)cc(N2CCN(CCO)CC2)n1

>  <AUC of dose-response viability curve>
2.01

$$$$
>  <compound>
COc1cc2c(Nc3ccc(NC(=O)c4ccccc4)cc3)ncnc2cc1OCCCN1CCOCC1 + Cc1nc(Nc2ncc(C(=O)Nc3c(C)cccc3Cl)s2)cc(N2CCN(CCO)CC2)n1

>  <AUC of dose-response viability curve>
3.33

$$$$
>  <compound>
Cc1cc(C(C)Nc2ccccc2)c2nc(N3CCOCC3)cc(=O)n2c1 (centres undefined) [TGX-221] + Cc1nc(Nc2ncc(C(=O)Nc3c(C)cccc3Cl)s2)cc(N2CCN(CCO)CC2)n1

>  <AUC of dose-response viability curve>
3.6

$$$$
>  <compound>
CCOC(=O)C1=C(N)Oc2ccc(Br)cc2[C@H]1[C@H](C#N)C(=O)OCC [HA14-1] + Cc1nc(Nc2ncc(C(=O)Nc3c(C)cccc3Cl)s2)cc(N2CCN(CCO)CC2)n1

>  <AUC of dose-response viability curve>
3.14

$$$$

Moving on to the next compound.
Kindly state the measured AUC of dose-response viability curve obtained for Nc1cccc2c1C(=O)N(C1CCC(=O)NC1=O)C2=O (centres undefined) [Pomalidomide] + Cc1nc(Nc2ncc(C(=O)Nc3c(C)cccc3Cl)s2)cc(N2CCN(CCO)CC2)n1 with A498.
3.27
